Give measured normalized growth for each item. Keep answers brief.
# experiment description: chemical genetic growth profiling, strain panel (AID 1159580);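 also: tested at 20 µM; growth read once vehicle control cultures reached saturation at 30 °C; 1 = growth at the plate median or of vehicle wells; lower values mean less growth of the strain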
# assay conditions: S. cerevisiae deletion strains, growth OD, locus YMR263W, strain SAP30, stronger effect = lower value
The campaign covered roughly 5,500 compounds. About 2,000 (36%) were called active. Roughly 18% stayed inconclusive and do not appear here. Some of the results follow.
Response field accepts a number only; no unit should be typed.

Given item O=C1NC(O)=NC1(c1ccccc1)c1ccccc1 , the value recorded as its normalized growth is 1.01

// sample CCCOc1ccc2nc(NC(=O)OC)[nH]c2c1 , its normalized growth was 0.989

// normalized growth lookup, molecule = NC(=O)NC(=O)Cc1ccccc1 , result: 1.01

Summary for this molecule, CCN1CCCC1CNC(=O)c1cc(S(N)(=O)=O)ccc1OC (stereo not given) : normalized growth is 0.98

Measured normalized growth of O=C1NC2CC2N1C(=O)OCc1ccccc1 (stereo not given) : 0.978

* * *

# experiment description: chemical genetic growth profiling, strain panel (AID 1159580);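 also: tested at 20 µM; growth read once vehicle control cultures reached saturation at 30 °C; 1 = growth at the plate median or of vehicle wells; lower values mean less growth of the strain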
# assay conditions: S. cerevisiae deletion strains, growth OD, locus YOR265W, strain rbl2, stronger effect = lower value
The whole screen tested about 5,500 compounds, of which about 2,000 (36%) were called active. About 18% were inconclusive and are not listed. This is one part of the list.
I'd be grateful if you could share measured normalized growth for these entries.
// print number alone

Record CC12CCC(=O)C=C1CCC1C2[C@@H](O)CC2(C)C1CC[C@]2(O)C(=O)COP(=O)(O)O (stereo not given in full) , field normalized growth: 1

The value of normalized growth measured for the molecule CCCc1cc(=O)[nH]c(=S)[nH]1 turned out to be 1.01

The recorded normalized growth for entry CC(Cc1cccc(C(F)(F)F)c1)NCCOC(=O)c1ccccc1 (stereo not given) equals 0.975

So for CC(CCC(=O)O)[C@H]1CCC2C3C(=O)C[C@@H]4CC(=O)CC[C@]4(C)C3CC(=O)[C@@]21C (stereo not given in full) , the logged normalized growth turned out to be 0.998

Lab book: normalized growth of CC(C)C[C@@H](CN)CC(=O)O noted as 0.999

For record CC(=O)O[C@H]1CCC2(C)C3=C(CCC2C1(C)C)[C@]1(C)CCC(C(C)CCC=C(C)C)[C@@]1(C)CC3 (stereo not given in full) the listed normalized growth is 1.01

Lab note: CCN(CC)CCOCCOC(=O)C1(c2ccccc2)CCCC1 gave normalized growth of 0.988

Kindly note the recorded normalized growth for CN(C)CCCN1c2ccccc2Sc2ccc(Cl)cc21 , which is 0.0766

The recorded normalized growth for entry Nc1ccc(C(=O)O)cc1 equals 1.01

Value of normalized growth reported for the molecule Oc1c(Cl)cc(Cl)cc1Sc1cc(Cl)cc(Cl)c1O is 0.0558

CN(C)C(=O)Oc1cccc([N+](C)(C)C)c1 yielded normalized growth of 0.996

Noted for COc1ccc(C2Sc3ccccc3N(CCN(C)C)C(=O)C2OC(C)=O)cc1 (stereo not given) : its normalized growth reads 0.974

The reported value for COC(=O)c1c(OC)cc2c(c1C)Oc1c(Cl)c(O)c(Cl)c(C)c1C(=O)O2 in terms of normalized growth is 0.989

// C[C@H](CCC(=O)O)[C@H]1CCC2C3C(=O)CC4CC(=O)CC[C@]4(C)C3CC(=O)[C@@]21C (stereo not given in full) : normalized growth value = 0.971

The reported normalized growth of the molecule CC(=O)Nc1ccc(S(=O)(=O)Nc2onc(C)c2C)cc1 was 0.973
